Hello, the source for this data is ChEMBL document CHEMBL6109084, in case you need it.

test system: Plasma; assay: Anticoagulant activity in citrated human plasma assessed as prolongation of activated partial thromboplastin time at 1 uM incubated for 3 mins by aPTT reagent based automated coagulometric analysis relative to control; assay type: functional; conditions: 0.05 h
endpoint: Activity (%)
Numbers only, in %.

In the examples that follow, each entry is paired with its recorded Activity.
CC[C@@H](C(=O)Nc1ccc(C(N)=O)c(F)c1)n1cc(OC)c(-c2cc(Cl)ccc2-n2cc(C(F)(F)F)nn2)cc1=O = 250.8
CNC(=O)c1ccc(-c2cccc(Cn3cc(OC)c(-c4cc(Cl)ccc4-n4cnnn4)cc3=O)c2)cc1 = 45.4
COc1cn(Cc2cccc(-c3ccc(O)cc3)c2)c(=O)cc1-c1cc(Cl)ccc1-n1cnnn1 = 26.6
CNC(=O)c1ccc(-c2cc(Cn3cc(OC)c(-c4cc(Cl)ccc4-n4cnnn4)cc3=O)ccc2F)cc1 = 49.9
COc1cn(Cc2ccc(F)c(-c3ccc(O)cc3)c2)c(=O)cc1-c1cc(Cl)ccc1-n1cnnn1 = 63.2

Asked: If you can, please state the reported Activity value of COc1cn(Cc2cccc(-c3ccc(C(N)=O)cc3F)c2)c(=O)cc1-c1cc(Cl)ccc1-n1cnnn1 .
Given back: 82.8
